Target: T1, cynomolgus SIRPα extracellular domain + His-tag (EGM_02252) (cynomolgus monkey)
T1 construct: also called CySIRPα EGM_02252; cynoSIRPα
T1 chain: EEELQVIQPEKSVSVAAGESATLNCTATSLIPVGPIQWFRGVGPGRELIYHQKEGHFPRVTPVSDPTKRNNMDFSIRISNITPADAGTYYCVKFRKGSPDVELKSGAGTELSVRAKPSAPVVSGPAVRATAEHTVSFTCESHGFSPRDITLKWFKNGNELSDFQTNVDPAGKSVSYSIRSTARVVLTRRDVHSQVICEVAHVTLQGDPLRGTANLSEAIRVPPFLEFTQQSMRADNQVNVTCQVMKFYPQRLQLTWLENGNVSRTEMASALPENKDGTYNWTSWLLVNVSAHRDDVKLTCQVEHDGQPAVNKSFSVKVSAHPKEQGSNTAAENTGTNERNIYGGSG
Test: SPR, Ab captured, ECD-His analyte
reported endpoint: pKd
Recall that pKd is obtained by taking minus log10 of the concentration measured in molar.

# count of solved cases: 2
Data point: Antibody A8 (antibody, human IgG1, kappa, L234A L235A, V domains shown) VH: EVQLVESGGGLVQPGGSLRLSCAASGFTLSSYDMHWVRQAPGKGLEWVSAIGTAGDTYYTGSVKGRFTISRENAKNSLYLQMNSLRAGDTAVYYCVRGGVWDDAFDIWGQGTMVTVSS VL: DIQMTQSPSSLSASVGDRVTITCRASQGINNYAAWFQQKPGKAPKSLIYTASSLHSGVPSKFSGSGSGTDFTLTISSLQPEDFATYYCQQYVSYPYTFGQGTKLEIKR ; pKd = 6.27

Data point: Antibody A12 (antibody, human IgG1, kappa, L234A L235A, V domains shown) VH: EVQLVESGGGLVQPGGSLRLSCAASGFTLSSYDMHWVRQATGKGLEWVSAIGTAGDTYYTGSVKGRFTISRENAKNSLYLQMNSLRASDTAVYYCVRGGVWDDAFDIWGQGTMVTVSS VL: DIQMTQSPSSLSASVGDRVTITCRASQDINNYLAWFQQKPGKAPKSLIYTASSLHSGVPSKFSGSGSGTDFTLTISSLQPEDFATYYCQQYVSYPYTFGQGTKLEIKR ; pKd = 6.60

Next, consider the following binder.
Data point: Antibody A6 (antibody, human IgG1, kappa, L234A L235A, V domains shown) VH: EVQLVESGGGLVQPGGSLRLSCAASGFTLSSYDMHWVRQAPGKGLEWVSAIGTAGDTYYTGSVKGRFTISRENAKNSLYLQMNSLRAEDTAVYYCVRGGVWDDAFDIWGQGTMVTVSS VL: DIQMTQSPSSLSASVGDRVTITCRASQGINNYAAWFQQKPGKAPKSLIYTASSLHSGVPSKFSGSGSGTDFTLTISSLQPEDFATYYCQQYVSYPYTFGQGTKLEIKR ; pKd = 6.27

Where do the numbers come from? From patent US20230012273A1.
